Conditions: Table 1; capacity factor extrapolated to 0% methanol; average of three to five determinations; pH 7.4
Give measured log k′w for each item. Keep answers brief.
Give bare numbers.

Below are some molecules; for each one, tell me its log k′w.
1. O=c1n(CCCN2CCN(c3cccc(Cl)c3)CC2)nc2ccccn12
2. CNC(=C[N+](=O)[O-])NCCSCc1csc(CN(C)C)n1
3. CCOC(=O)N1CCC(=C2c3ccc(Cl)cc3CCc3cccnc32)CC1
4. CCCCNc1ccc(C(=O)OCCN(C)C)cc1
5. C[C@]12C=CC(=O)C=C1CC[C@@H]1[C@@H]2[C@@H](O)C[C@@]2(C)[C@H]1CC[C@]2(O)C(=O)CO

[2.45, "−0.13", 4.02, 1.70, 1.24]

----------
Details: Table 1; capacity factor extrapolated to 0% methanol; average of three to five determinations; pH 7.4
readout-label: log k′w

Before answering, review these 8 worked examples.
C[C@]12C=CC(=O)C=C1CC[C@@H]1[C@@H]2C(=O)C[C@@]2(C)[C@H]1CC[C@]2(O)C(=O)CO [Prednisone]; 0.90
CNC(=NCCSCc1csc(N=C(N)N)n1)NC#N [Tiotidine]; 0.57
O=C(NCC1CCCCN1)c1cc(OCC(F)(F)F)ccc1OCC(F)(F)F (centres unmarked) [Flecainide]; 0.25
Clc1cccc(Cl)c1N=C1NCCN1 [Clonidine]; 0.07
CCN(CC)CCNC(=O)c1cc(S(C)(=O)=O)ccc1OC [Tiapride]; −0.58
NC(=O)N1c2ccccc2C=Cc2ccccc21 [Carbamazepine]; 1.40
Cc1ncc(-c2csc(N=C(N)N)n2)[nH]1 [Zaltidine]; 0.53
CC(=O)OCC(=O)[C@@]1(O)CC[C@H]2[C@@H]3CCC4=CC(=O)CC[C@]4(C)[C@H]3[C@@H](O)C[C@@]21C [Hydrocortisone-21 acetate]; 1.64

Below are some molecules; for each one, tell me its log k′w.
1. COC1=CC(=O)C[C@@H](C)[C@]12Oc1c(Cl)c(OC)cc(OC)c1C2=O [Griseofulvin]
2. Clc1ccccc1C(c1ccccc1)(c1ccccc1)n1ccnc1 [Clotrimazole]

1: 1.73; 2: 4.03

Annotate the molecule CNS(=O)(=O)Cc1ccc2[nH]cc(CCN(C)C)c2c1 [Sumatriptan] with its measured log k′w.
−0.54

----------
Details: Table 1; capacity factor extrapolated to 0% methanol; average of three to five determinations; pH 7.4
// map log k′w to label using low value: < 0.3; medium value: ≥ 0.3 and < 2; high value: ≥ 2

Look over these answered cases.
CC(C)NCC(O)c1ccc(NS(C)(=O)=O)cc1 (stereo not drawn) [Sotalol]; low value
NC(=O)N/N=C/c1ccc([N+](=O)[O-])o1 [Nitrofurazone]; low value
CC(=O)c1ccccc1 [Acetophenone]; medium value

Form: Item = CN(C)CCCN1c2ccccc2Sc2ccc(Cl)cc21 [Chlorpromazine] ; Class = ?
high value

Form: Item = NS(=O)(=O)c1cc(C2(O)NC(=O)c3ccccc32)ccc1Cl (stereo not drawn) [Chlorthalidone] ; Class = ?
medium value

----------
Assay: physchem
Conditions: pH 7.4
Label yes (1) when chromatographic logD >= 3; otherwise no (0).

Oc1cccc(Cl)c1; yes (1)
NC(=O)N/N=C/c1ccc([N+](=O)[O-])o1; no (0)
NS(=O)(=O)c1cc2c(cc1Cl)NC(C1CC3C=CC1C3)NS2(=O)=O (centres unmarked) [Cyclothiazide]; no (0)

Please indicate if the recorded chromatographic logD for CNS(=O)(=O)Cc1ccc2[nH]cc(CCN(C)C)c2c1 meets or exceeds 3.
no (0)

Please indicate if the recorded chromatographic logD for CCCCNc1ccc(C(=O)OCCN(C)C)cc1 meets or exceeds 3.
no (0)
